Reported pEC50 is given for each of the following compounds.
# Assayed Target: Histamine H3 receptor (Homo sapiens)
# Sequence (Q9Y5N1 whole entry): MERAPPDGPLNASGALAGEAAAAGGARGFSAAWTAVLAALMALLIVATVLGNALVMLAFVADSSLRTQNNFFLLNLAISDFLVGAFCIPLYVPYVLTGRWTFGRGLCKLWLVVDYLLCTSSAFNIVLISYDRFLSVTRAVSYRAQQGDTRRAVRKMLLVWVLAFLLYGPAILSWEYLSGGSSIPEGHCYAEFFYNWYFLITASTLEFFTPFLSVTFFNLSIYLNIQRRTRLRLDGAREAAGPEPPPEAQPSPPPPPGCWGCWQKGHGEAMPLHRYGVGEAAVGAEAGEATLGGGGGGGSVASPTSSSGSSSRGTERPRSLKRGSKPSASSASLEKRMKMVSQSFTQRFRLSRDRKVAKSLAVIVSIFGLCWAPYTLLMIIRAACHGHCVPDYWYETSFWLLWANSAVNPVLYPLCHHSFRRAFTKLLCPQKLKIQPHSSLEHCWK
# Assay Method Text: Agonist activity at human H3R expressed in HEK293 cells harboring glosensor-22F cAMP plasmid DNA assessed as inhibition of forskolin-stimulated cAMP accumulation preincubated with cells followed by forskolin addition measured after 10 mins by luminescence assay
# Assay type: functional, cell-based
# Measurement Conditions: read-out: EC50
Convention used: pEC50 is expressed as -log10 of the molar concentration.

Example entries begin here.
- Compound: "COc1ccc(N2C(=O)C(=Cc3ccccc3)C2(C(=O)NC2CCCCC2)c2cc(F)c(F)c(F)c2)cc1 (stereo not given)"
  pEC50: 10.00
- Compound: "COc1cc(NC2(c3cccc(Cl)c3)C(=O)N(C(C)(C)C)C(=O)/C2=C/c2ccccc2)cc(OC)c1OC (stereo not given)"
  pEC50: 8.57
- Compound: "COc1ccc(C(C(=O)NC2CCCCC2)N2C(=O)C(c3ccc(C(F)(F)F)cc3)=C(c3ccccc3)C23C=CC(=O)C=C3)c(OC)c1OC (stereo not given)"
  pEC50: 7.89
- Compound: "COc1cc(NC2(c3ccc(Br)cc3)C(=O)N(C(C)(C)C)C(=O)/C2=C/c2ccccc2)cc(OC)c1OC (stereo not given)"
  pEC50: 8.24

IN: Tell me its pEC50 given COc1cc(N2C(=O)C(=Cc3ccccc3)C2(C(=O)NC(C)(C)C)c2cc(F)cc(F)c2)cc(OC)c1OC (stereo not given) as the entry.
OUT: 9.52

* * *

# Assay Method Text: Octanol/water partition co-efficient, log P of the compound after 24 hrs by HPLC based shake-flask method
# Assay type: physicochemical
Measurement Kind: logP at 24 h
Enter the number alone.

- Compound: "COc1cc(NC2(c3cccc(Cl)c3)C(=O)N(C(C)(C)C)C(=O)/C2=C/c2ccccc2)cc(OC)c1OC (stereo not drawn)"
  Experimental Value: 2.96
- Compound: "COc1cc(N2C(=O)C(=Cc3ccccc3)C2(C(=O)NC2CCCCC2)c2ccc(F)cc2)cc(OC)c1OC (stereo not drawn)"
  Experimental Value: 1.85
- Compound: "COc1cc(N2C(=O)C(=Cc3ccccc3)C2(C(=O)NC(C)(C)C)c2cc(F)cc(F)c2)cc(OC)c1OC (stereo not drawn)"
  Experimental Value: 2.34
- Compound: "O=C1C=CC2(C=C1)C(c1ccccc1)=CC(=O)N2C(C(=O)NC1CCCCC1)c1ccc(Cl)cc1 (stereo not drawn)"
  Experimental Value: 3.8
- Compound: "O=C1C=C[C@]23C(c4ccccc4)=CC(=O)N2[C@H](c2ccc([N+](=O)[O-])cc2)C(=O)N[C@@H]3C1"
  Experimental Value: 1.78

IN: Tell me its logP at 24 h given COc1ccc(NC2(c3cccc(Cl)c3)C(=O)N(C3CCCCC3)C(=O)/C2=C/c2ccccc2)cc1OC (stereo not drawn) as the entry.
OUT: 2.45

IN: Tell me its logP at 24 h given O=C1C=C[C@]23C(c4ccccc4)=CC(=O)N2[C@H](c2ccc(C(F)(F)F)cc2)C(=O)N[C@@H]3C1 as the entry.
OUT: 2.1

IN: Tell me its logP at 24 h given COc1ccc(C(C(=O)NC2CCCCC2)N2C(=O)C(c3ccc(C(F)(F)F)cc3)=C(c3ccccc3)C23C=CC(=O)C=C3)c(OC)c1OC (stereo not drawn) as the entry.
OUT: 2.74
